- Target: hNurr1_RXRγFL (NURR1/RXRγ heterodimer) (Homo sapiens, UniProt P43354+P48443)
- Sequence (P43354 328-598): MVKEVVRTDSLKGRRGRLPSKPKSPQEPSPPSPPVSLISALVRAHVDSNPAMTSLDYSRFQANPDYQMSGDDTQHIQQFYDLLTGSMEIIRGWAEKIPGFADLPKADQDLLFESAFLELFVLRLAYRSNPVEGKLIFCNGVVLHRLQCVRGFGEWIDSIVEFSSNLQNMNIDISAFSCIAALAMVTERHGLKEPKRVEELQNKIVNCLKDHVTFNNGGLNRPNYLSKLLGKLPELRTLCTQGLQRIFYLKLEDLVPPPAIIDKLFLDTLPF
- Sequence (P48443 whole entry, the tested form may be a part): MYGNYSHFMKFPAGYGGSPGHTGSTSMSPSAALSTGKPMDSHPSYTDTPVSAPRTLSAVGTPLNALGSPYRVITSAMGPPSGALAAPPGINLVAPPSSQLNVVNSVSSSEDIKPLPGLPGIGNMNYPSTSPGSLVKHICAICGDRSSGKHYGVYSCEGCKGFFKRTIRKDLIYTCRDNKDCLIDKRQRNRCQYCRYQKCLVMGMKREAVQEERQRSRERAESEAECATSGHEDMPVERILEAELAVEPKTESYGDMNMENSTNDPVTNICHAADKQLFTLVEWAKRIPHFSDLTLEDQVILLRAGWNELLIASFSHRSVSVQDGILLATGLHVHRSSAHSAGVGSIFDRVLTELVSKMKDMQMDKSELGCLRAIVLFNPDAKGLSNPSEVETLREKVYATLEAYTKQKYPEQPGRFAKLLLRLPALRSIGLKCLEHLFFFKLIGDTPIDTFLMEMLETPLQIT
- Procedure details: Transactivation assay in Cos-7 cells, NURR-1-Gal4 / RXRγ, luciferase reporter
- Experimental parameters: Cos-7 cells, overnight incubation
pEC50: −log10 of the molar value.

Smiles | pEC50
CC(C)(CO)c1cccc(S(=O)(=O)n2c(Cc3ccc(C(=O)O)cc3)cc3cc(C(F)(F)F)ccc32)c1 | 6.79
O=C(O)c1ccc(Cc2cc3cc(C(F)(F)F)ccc3n2S(=O)(=O)c2ccc3ccccc3c2)cc1 | 6.06
O=C(O)c1ccc(Cc2cc3cc(C(F)(F)F)ccc3n2S(=O)(=O)c2cccc(Cl)c2)cc1 | 6.37
O=C(O)c1ccc(Cc2cc3cc(Cl)ccc3n2S(=O)(=O)c2ccc(F)c(F)c2)cc1 | 5.86
CC(C)c1ccc(S(=O)(=O)n2c(Cc3ccc(C(=O)O)c(Cl)c3)cc3cc(C(F)(F)F)ccc32)cc1 | 6.13
CC(C)(C)c1cccc(S(=O)(=O)n2c(Cc3ccc(C(=O)O)cc3)c(F)c3cc(C(F)(F)F)ccc32)c1 | 6.65
CC(C)(C)c1cccc(S(=O)(=O)n2c(Cc3ccc(-c4noc(=O)[nH]4)cc3)cc3cc(C(F)(F)F)ccc32)c1 | 6.17

* * *

- Target: hNurr1_RXRαFL (NURR1/RXRα heterodimer) (Homo sapiens, UniProt P19793+P43354)
- Sequence (P19793 whole entry, the tested form may be a part): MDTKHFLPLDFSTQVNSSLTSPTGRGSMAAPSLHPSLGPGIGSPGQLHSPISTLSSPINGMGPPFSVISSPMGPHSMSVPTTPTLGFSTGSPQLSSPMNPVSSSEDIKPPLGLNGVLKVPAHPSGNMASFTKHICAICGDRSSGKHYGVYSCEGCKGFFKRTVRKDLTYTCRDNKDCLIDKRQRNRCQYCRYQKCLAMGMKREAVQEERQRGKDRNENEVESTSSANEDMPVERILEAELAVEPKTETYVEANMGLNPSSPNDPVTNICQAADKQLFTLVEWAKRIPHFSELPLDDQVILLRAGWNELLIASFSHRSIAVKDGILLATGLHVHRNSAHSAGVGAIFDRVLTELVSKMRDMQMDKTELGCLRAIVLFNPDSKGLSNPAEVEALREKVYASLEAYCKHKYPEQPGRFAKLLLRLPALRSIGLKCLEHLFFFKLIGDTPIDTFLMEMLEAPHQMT
- Sequence (P43354 328-598): as the sequence (P43354 328-598) above
- Procedure details: Transactivation assay in Cos-7 cells, NURR-1-Gal4 / RXRα, luciferase reporter
- Experimental parameters: Cos-7 cells, overnight incubation
- Protocol: First, the capacity of the compounds according to the invention for acting as an activator of the heterodimers formed by the NURR-1 nuclear receptor and the RXR nuclear receptors was measured by an in vitro assay. A transactivation assay was used as a primary screening assay. […] After 24 hours, the culture medium was changed. […] After overnight incubation, luciferase expression was measured after addition of “SteadyGlo” according to the manufacturer's instructions (Promega). […]
Entries and their EC50 values follow.

Compound | EC50, nM
CC(C)c1ccc(S(=O)(=O)n2c(Cc3ccc(C(=O)O)c(F)c3)cc3cc(C(F)(F)F)ccc32)cc1 [Example 2] | 657
CC(C)c1ccc(S(=O)(=O)n2c(Cc3ccc(C(=O)O)s3)cc3cc(C(F)(F)F)ccc32)cc1 [Example 71] | 47
O=C(O)c1ccc(Cc2cc3cc(C(F)(F)F)ccc3n2S(=O)(=O)c2ccc3ccccc3c2)cc1 [Example 25] | 496
O=C(O)c1ccc(Cc2cc3cc(Cl)ccc3n2S(=O)(=O)c2ccc3c(c2)OCCO3)o1 [Example 79] | 724
CN1CCOc2ccc(S(=O)(=O)n3c(Cc4csc(C(=O)O)c4)cc4cc(C(F)(F)F)ccc43)cc21 [Example 74] | 40
Cn1nccc1-c1cccc(S(=O)(=O)n2c(Cc3ccc(C(=O)O)cc3)cc3cc(C(F)(F)F)ccc32)c1 [Example 20] | 295
COC(=O)c1ccc(Cc2cc3cc(C(F)(F)F)c(F)cc3n2S(=O)(=O)c2cccc(C(C)(C)C)c2)cc1 [Example 110] | 15

* * *

- Target: hNurr1_RXRαFL (NURR1/RXRα heterodimer) (Homo sapiens, UniProt P19793+P43354)
- Procedure details: Transactivation assay in Cos-7 cells, NURR-1-Gal4 / RXRα, luciferase reporter
- Experimental parameters: Cos-7 cells, overnight incubation
Entries and their EC50 values follow.
Readout kind: EC50 (nM)

Smiles | Value
O=C(O)c1ccc(Cc2cc3cc(Cl)ccc3n2S(=O)(=O)c2ccc(OC(F)(F)F)cc2)cc1 | 638
O=C(O)c1ccc(Cc2cc3cc(Cl)ccc3n2S(=O)(=O)c2ccc(F)c(F)c2)cc1 | 851
O=C(O)c1ccc(Cc2cc3cc(C(F)(F)F)ccc3n2S(=O)(=O)c2ccc(OC(F)(F)F)cc2)cc1 | 459
CC(C)(C)c1cccc(S(=O)(=O)n2c(Cc3ccc(F)c(C(=O)O)c3)cc3cc(C(F)(F)F)ccc32)c1 | 69
O=C(O)c1ccc(Cc2cc3cc(Cl)ccc3n2S(=O)(=O)c2ccc(C(F)(F)F)cc2)cc1 | 504
CCC(C)(C)c1ccc(S(=O)(=O)n2c(Cc3ccc(C(=O)O)cc3)cc3cc(Cl)ccc32)cc1 | 422
O=C(O)c1ccc(Cc2cc3cc(Cl)ccc3n2S(=O)(=O)c2ccc(Oc3ccccc3)nc2)cc1 | 331
CC(C)(C)c1cccc(S(=O)(=O)n2c(Cc3ccc(C=C4SC(=S)NC4=O)cc3)cc3cc(C(F)(F)F)ccc32)c1 | 1320
Cn1ccc(-c2cccc(S(=O)(=O)n3c(Cc4ccc(C(=O)O)cc4)cc4cc(C(F)(F)F)ccc43)c2)n1 | 407
CC(C)c1cccc(S(=O)(=O)n2c(Cc3ccc(C(=O)O)cc3)cc3cc(Cl)ccc32)c1 | 801
O=C(O)c1cncc(Cc2cc3cc(Cl)ccc3n2S(=O)(=O)c2ccc3c(c2)OCCO3)c1 | 3000
Cn1cc(Cc2cc3cc(C(F)(F)F)ccc3n2S(=O)(=O)c2cccc(C(C)(C)C)c2)cc1C(=O)O | 30
CC(C)(C)c1cccc(S(=O)(=O)n2c(C(=O)c3ccc(C(=O)O)s3)cc3cc(C(F)(F)F)ccc32)c1 | 1240
COC(=O)c1ccc(Cc2c(F)c3cc(C(F)(F)F)ccc3n2S(=O)(=O)c2cccc(C(C)(C)C)c2)cc1 | 62
Cc1c(Cc2ccc(C(=O)O)cc2)n(S(=O)(=O)c2cccc(C(C)(C)C)c2)c2ccc(C(F)(F)F)cc12 | 120
